EXPERIMENT: Cytostatic effect on exponentially growing MDBK cells (MTS)
Assay type: cell-based, Bovine
CONDITION_DETAILS: bovine; Table 9; reduction of growth of exponentially growing MDBK cells by 50%; mean of 2-5 determinations
CC50 at 3 days strictly under 40 µg/mL means Met; at 40 µg/mL or over means Not met.

compound="c1ccc(-c2nc3ccn(Cc4ccccn4)cc-3n2)cc1 [GPJN-34]" class_label="Not met"
compound="c1ccc(-c2nc3ccn(Cc4cccnc4)cc-3n2)cc1 [GPJN-35]" class_label="Not met"
compound="Ic1ccc(Cn2ccc3nc(-c4ccccc4)nc-3c2)cc1 [GPJN-68]" class_label=Met
compound="Brc1ccc(Cn2ccc3nc(-c4ccc5ccccc5c4)nc-3c2)cc1 [GPJN-63]" class_label=Met
compound="Cc1ccc(Cn2ccc3nc(-c4ccccc4)nc-3c2)cc1 [GPJN-15]" class_label=Met
compound="Fc1ccc(Cn2ccc3nc(-c4c(F)cccc4F)nc-3c2)c(F)c1 [GPJN-40]" class_label="Not met"
compound="Brc1ccc(Cn2ccc3nc(-c4ccccn4)nc-3c2)cc1 [GPJN-58]" class_label=Met
compound="Brc1cccc(-c2nc3ccn(Cc4ccc(I)cc4)cc-3n2)c1 [GPJN-79]" class_label="Not met"
compound="COc1cccc(-c2nc3ccn(Cc4ccc(Br)cc4)cc-3n2)c1 [GPJN-64]" class_label="Not met"
compound="Brc1ccc(Cn2ccc3nc(-c4cccs4)nc-3c2)cc1 [GPJN-53]" class_label="Not met"
compound="Fc1cccc(Cn2ccc3nc(-c4ccccc4)nc-3c2)c1 [GPJN-18]" class_label="Not met"
compound="c1ccc(-c2nc3ccn(Cc4ccc5ccccc5c4)cc-3n2)cc1 [GPJN-26]" class_label="Not met"
compound="Fc1cccc(F)c1-c1nc2ccn(Cc3ccccc3)cc-2n1 [GPJN-1]" class_label="Not met"
compound="COc1ccc(Cn2ccc3nc(-c4ccccc4)nc-3c2)cc1 [GPJN-13]" class_label="Not met"
compound="Clc1ccc(Cn2ccc3nc(-c4ccccc4)nc-3c2)s1 [GPJN-25]" class_label=Met
compound="c1ccc(CCCCn2ccc3nc(-c4ccccc4)nc-3c2)cc1 [GPJN-27]" class_label="Not met"
compound="Cc1cccc(Cn2ccc3nc(-c4ccccc4)nc-3c2)c1 [GPJN-21]" class_label=Met
compound="CC(C)(C)c1ccc(Cn2ccc3nc(-c4ccccc4)nc-3c2)cc1 [GPJN-16]" class_label=Met
compound="c1ccc(-c2nc3ccn(Cc4ccncc4)cc-3n2)cc1 [GPJN-31]" class_label="Not met"
compound="CC(c1ccccc1)n1ccc2nc(-c3ccccc3)nc-2c1 (stereo not drawn) [GPJN-33]" class_label="Not met"
